assay: Pharmacokinetics in mice; type: in vivo; conditions: ICR, mouse, plasma, 5 mg/kg, po. 5 mpk, read-out: Peak concentration Cmax
readout_type: Cmax (ng/mL)
The response must be a number in ng/mL with no trailing unit.

Example entries and their recorded answers appear below.
[2H]C([2H])([2H])C([2H])(c1cc(Oc2c(Cl)cc(-n3nc(C#N)c(=O)[nH]c3=O)cc2Cl)n[nH]c1=O)C([2H])([2H])[2H] [Compound 2] = 2300
[2H]c1c(Oc2c(Cl)cc(-n3nc(C#N)c(=O)[nH]c3=O)cc2Cl)n[nH]c(=O)c1C(C([2H])([2H])[2H])C([2H])([2H])[2H] [Compound 11] = 6500
[2H]C([2H])([2H])C(C)c1cc(Oc2c(Cl)cc(-n3nc(C#N)c(=O)[nH]c3=O)cc2Cl)n[nH]c1=O (stereo not drawn) [Compound 3] = 1900
[2H]c1c(Oc2c(Cl)cc(-n3nc(C#N)c(=O)[nH]c3=O)cc2Cl)n[nH]c(=O)c1C([2H])(C([2H])([2H])[2H])C([2H])([2H])[2H] [Compound 10] = 7400
CC(C)c1cc(Oc2c(Cl)cc(-n3nc(C#N)c(=O)[nH]c3=O)cc2Cl)n[nH]c1=O [MGL-3196, reference compound] = 1370

Lab note: next compound to report on.
Request: Can you look up the measured Cmax of [2H]C([2H])([2H])C(c1cc(Oc2c(Cl)cc(-n3nc(C#N)c(=O)[nH]c3=O)cc2Cl)n[nH]c1=O)C([2H])([2H])[2H] [Compound 1] for me?
Result: 3200

----------
experiment: Metabolic stability in human liver microsomes; type: in vitro ADME; conditions: 1 μM test drug, 0.5 mg/ml protein, 1 mM NADPH, read-out: Half-life t1/2
readout_type: half-life at 1 μM
Give your result as the value with the unit written after it.

Example entries and their recorded answers appear below.
[2H]c1c(Oc2c(Cl)cc(-n3nc(C#N)c(=O)[nH]c3=O)cc2Cl)n[nH]c(=O)c1C([2H])(C([2H])([2H])[2H])C([2H])([2H])[2H] = 10.7 h
[2H]c1c(Oc2c(Cl)cc(-n3nc(C#N)c(=O)[nH]c3=O)cc2Cl)n[nH]c(=O)c1C(C([2H])([2H])[2H])C([2H])([2H])[2H] = 19.6 h
[2H]C([2H])([2H])C([2H])(c1cc(Oc2c(Cl)cc(-n3nc(C#N)c(=O)[nH]c3=O)cc2Cl)n[nH]c1=O)C([2H])([2H])[2H] = 21.2 h
[2H]C([2H])([2H])C(c1cc(Oc2c(Cl)cc(-n3nc(C#N)c(=O)[nH]c3=O)cc2Cl)n[nH]c1=O)C([2H])([2H])[2H] = 6.92 h

Request: Can you look up the measured half-life at 1 μM of CC(C)c1cc(Oc2c(Cl)cc(-n3nc(C#N)c(=O)[nH]c3=O)cc2Cl)n[nH]c1=O [MGL-3196, reference compound] for me?
Result: 7.97 h

----------
Biological target: UniProtKB P10632
Sequence (P10632 1-490): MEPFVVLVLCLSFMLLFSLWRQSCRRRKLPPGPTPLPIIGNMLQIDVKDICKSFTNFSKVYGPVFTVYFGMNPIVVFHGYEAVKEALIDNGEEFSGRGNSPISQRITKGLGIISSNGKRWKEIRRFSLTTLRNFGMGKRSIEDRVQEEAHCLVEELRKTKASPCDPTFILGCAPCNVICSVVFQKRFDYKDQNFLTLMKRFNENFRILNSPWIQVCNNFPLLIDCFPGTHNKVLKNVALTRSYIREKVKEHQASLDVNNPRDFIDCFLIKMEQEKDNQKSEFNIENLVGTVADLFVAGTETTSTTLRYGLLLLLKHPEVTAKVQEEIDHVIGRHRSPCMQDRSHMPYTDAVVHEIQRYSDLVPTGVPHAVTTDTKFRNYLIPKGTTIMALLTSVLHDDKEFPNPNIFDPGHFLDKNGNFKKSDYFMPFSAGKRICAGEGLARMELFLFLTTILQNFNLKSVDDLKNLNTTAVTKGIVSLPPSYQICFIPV
Assay: Metabolic stability in recombinant human CYP2C8 metabolic enzyme
Type: in vitro ADME
Details: CYP subtype 2C8, test concentration 2 (M), 25 minutes
readout_type: Percentage of residual substances after 25 minutes (%)
The response must be a number in % with no trailing unit.

[2H]C([2H])([2H])C(c1cc(Oc2c(Cl)cc(-n3nc(C#N)c(=O)[nH]c3=O)cc2Cl)n[nH]c1=O)C([2H])([2H])[2H] = 77.70
[2H]c1c(Oc2c(Cl)cc(-n3nc(C#N)c(=O)[nH]c3=O)cc2Cl)n[nH]c(=O)c1C(C([2H])([2H])[2H])C([2H])([2H])[2H] = 85.57

Lab note: next molecule to report on.
Request: Can you look up the measured Percentage of residual substances after 25 minutes of [2H]C([2H])([2H])C([2H])(c1cc(Oc2c(Cl)cc(-n3nc(C#N)c(=O)[nH]c3=O)cc2Cl)n[nH]c1=O)C([2H])([2H])[2H] for me?
Result: 80.87

Hey, just so you know, these numbers are from patent US20210292304A1.
